Values compiled from ChEMBL document CHEMBL1221172.

assayedTarget: Histone-lysine N-methyltransferase E(z) (Drosophila melanogaster)
Sequence (P42124 whole entry): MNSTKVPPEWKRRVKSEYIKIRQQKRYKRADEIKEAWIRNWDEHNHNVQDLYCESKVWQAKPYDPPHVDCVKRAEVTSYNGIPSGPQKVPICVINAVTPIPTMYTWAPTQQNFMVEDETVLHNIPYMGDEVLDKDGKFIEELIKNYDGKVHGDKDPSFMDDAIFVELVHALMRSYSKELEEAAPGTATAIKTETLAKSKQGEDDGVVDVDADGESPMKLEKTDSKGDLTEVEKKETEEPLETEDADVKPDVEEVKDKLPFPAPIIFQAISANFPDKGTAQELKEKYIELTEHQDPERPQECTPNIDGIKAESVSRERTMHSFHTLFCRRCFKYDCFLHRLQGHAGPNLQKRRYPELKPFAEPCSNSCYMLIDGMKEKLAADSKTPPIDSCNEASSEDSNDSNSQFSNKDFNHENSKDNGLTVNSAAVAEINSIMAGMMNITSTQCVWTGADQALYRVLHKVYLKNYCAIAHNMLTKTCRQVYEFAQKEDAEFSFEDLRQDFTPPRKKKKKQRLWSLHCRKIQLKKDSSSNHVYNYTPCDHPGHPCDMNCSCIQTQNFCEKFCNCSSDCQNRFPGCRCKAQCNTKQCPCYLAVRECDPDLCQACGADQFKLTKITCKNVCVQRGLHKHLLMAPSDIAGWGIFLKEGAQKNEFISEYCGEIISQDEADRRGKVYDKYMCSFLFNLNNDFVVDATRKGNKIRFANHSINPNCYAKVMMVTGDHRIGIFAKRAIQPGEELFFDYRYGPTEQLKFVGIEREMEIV
pIC50: −log10 of the molar value.

compoundStructure: CN1C(=O)[C@@]23C[C@]4([C@]56C[C@@]78SS[C@@](CO)(C(=O)N7[C@H]5Nc5ccccc56)N(C)C8=O)c5ccccc5N[C@@H]4N2C(=O)[C@]1(CO)SS3
pIC50: < 4.05

###

assayedTarget: Histone-lysine N-methyltransferase, H3 lysine-9 specific dim-5 (Neurospora crassa, UniProt Q8X225)
Sequence (Q8X225 whole entry): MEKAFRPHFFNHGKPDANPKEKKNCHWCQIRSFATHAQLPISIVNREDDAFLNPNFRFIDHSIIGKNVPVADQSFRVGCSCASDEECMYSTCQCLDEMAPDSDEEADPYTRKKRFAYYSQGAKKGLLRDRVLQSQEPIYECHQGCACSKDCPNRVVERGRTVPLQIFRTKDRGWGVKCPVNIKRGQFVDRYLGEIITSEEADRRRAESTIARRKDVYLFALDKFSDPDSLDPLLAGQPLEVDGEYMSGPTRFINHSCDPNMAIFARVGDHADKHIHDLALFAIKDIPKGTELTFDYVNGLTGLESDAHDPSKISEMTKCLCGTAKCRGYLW
pIC50: −log10 of the molar value.
measure: pIC50

compoundStructure: CN1C(=O)[C@@]23C[C@]4([C@]56C[C@@]78SS[C@@](CO)(C(=O)N7[C@H]5Nc5ccccc56)N(C)C8=O)c5ccccc5N[C@@H]4N2C(=O)[C@]1(CO)SS3
value: 5.52
